TEST: Selectivity index, ratio of CC50 for rat L6 cells to EC50 for Trypanosoma cruzi strain CL Brener epimastigotes
Format: toxicity
COND: read-out: Ratio CC50/EC50
We label by threshold. Values of selectivity ratio strictly beneath 3 are MET. Values of 3 and up are NOT MET.

| COMPOUND | ANSWER LABEL |
| --- | --- |
| O=C(CN1C(=O)N(Cc2ccccc2)C2(CCc3ccccc32)C1=O)NO (stereo not given) | NOT MET |
| O=C(CN1C(=O)N(Cc2ccccc2)C2(CCCCc3ccccc32)C1=O)NO (stereo not given) | NOT MET |
| CN1C(=O)N(CC(=O)NO)C(=O)C12CCCCc1ccccc12 (stereo not given) | MET |

Say whether its selectivity ratio is strictly beneath 3. Entry: CN1C(=O)N(CC(=O)NO)C(=O)C12CCCc1ccccc12 (stereo not given)
MET

---

TEST: Selectivity index, ratio of CC50 for human Huh5.2 cells to EC50 for HCV genotype 4a ED43
Assay type: toxicity
COND: read-out: Ratio CC50/EC50
OUTCOME MEASURE: selectivity ratio
Please reply with the value in numeric form only.

| COMPOUND | REPORTED RESULT |
| --- | --- |
| O=C(CN1C(=O)N(Cc2ccccc2)C2(CCCCc3ccccc32)C1=O)NO (centres undefined) | 45 |

Summary for this compound, CN1C(=O)N(CC(=O)NO)C(=O)C12CCc1ccccc12 (centres undefined) : selectivity ratio is 128

Summary for this compound, O=C(CN1C(=O)N(Cc2ccccc2)C2(CCc3ccccc32)C1=O)NO (centres undefined) : selectivity ratio is 54

Summary for this compound, CN1C(=O)N(CC(=O)NO)C(=O)C12CCCCc1ccccc12 (centres undefined) : selectivity ratio is 1020

Summary for this compound, O=C(CN1C(=O)N(Cc2ccccc2)C2(CCCc3ccccc32)C1=O)NO (centres undefined) : selectivity ratio is 127

Summary for this compound, O=C(CN1C(=O)NC2(CCCCc3ccccc32)C1=O)NO (centres undefined) : selectivity ratio is 1980

Summary for this compound, CN1C(=O)N(CC(=O)NO)C(=O)C12CCCc1ccccc12 (centres undefined) : selectivity ratio is 682

---

TEST: Cytotoxicity against human HuH5.2 cells assessed as reduction in cell viability incubated for 72 hrs by measuring intracellular ATP levels
We begin with a simple list: items and their reported CC50 at 72 h.
Provide the reading as a plain figure in µM.

Take a look at these entries with their results.
| MOLECULE | QUANTITY UNIT | REPORTED RESULT |
| --- | --- | --- |
| O=C(CN1C(=O)N(Cc2ccccc2)C2(CCc3ccccc32)C1=O)NO (stereo not given) | µM | 7.53 |
| O=C(CN1C(=O)NC2(CCCCc3ccccc32)C1=O)NO (stereo not given) | µM | 198 |

Summary for this molecule, CN1C(=O)N(CC(=O)NO)C(=O)C12CCc1ccccc12 (stereo not given) : CC50 at 72 h is 26.9

---

SYSTEM TESTED: RNA-directed RNA polymerase (Hepacivirus hominis, UniProt O39930)
Sequence (O39930 whole entry): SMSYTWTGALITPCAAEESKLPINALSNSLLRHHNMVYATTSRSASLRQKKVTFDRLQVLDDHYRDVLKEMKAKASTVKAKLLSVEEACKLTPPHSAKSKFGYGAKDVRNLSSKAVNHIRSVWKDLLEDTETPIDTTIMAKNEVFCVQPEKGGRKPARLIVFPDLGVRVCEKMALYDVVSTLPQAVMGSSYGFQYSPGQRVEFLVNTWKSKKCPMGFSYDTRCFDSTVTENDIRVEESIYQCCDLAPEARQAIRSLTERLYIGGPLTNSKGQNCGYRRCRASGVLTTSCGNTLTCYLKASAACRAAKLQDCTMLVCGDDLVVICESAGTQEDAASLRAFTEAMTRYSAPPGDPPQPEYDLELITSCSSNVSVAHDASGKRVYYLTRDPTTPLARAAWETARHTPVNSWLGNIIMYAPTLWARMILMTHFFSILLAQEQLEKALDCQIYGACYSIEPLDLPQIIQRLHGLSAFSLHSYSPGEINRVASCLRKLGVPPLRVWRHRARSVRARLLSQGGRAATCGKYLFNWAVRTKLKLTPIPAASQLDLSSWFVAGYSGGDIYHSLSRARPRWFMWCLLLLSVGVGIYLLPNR
TEST: Inhibition of HCV genotype 1b NS5B RNA dependent RNA polymerase
We begin with a simple list: items and their reported pEC50.
Interpret pEC50 as the negative base-10 log of the concentration measured in mol/L.

| MOLECULE | pEC50 |
| --- | --- |
| COc1c(-c2ccc3cc(NS(C)(=O)=O)ccc3c2)cc(-n2ccc(=O)[nH]c2=O)cc1C(C)(C)C [DASABUVIR] | 8.74 |

Turning now to a further molecule:
Summary for this molecule, CC(C)OC(=O)[C@H](C)N[P@](=O)(OC[C@H]1O[C@@H](n2ccc(=O)[nH]c2=O)[C@](C)(F)[C@@H]1O)Oc1ccccc1 [SOFOSBUVIR] : pEC50 is 6.99
